Data provenance is ChEMBL document CHEMBL3046966.

Test system: Podosphaera fuliginea
Assay: Fungicidal activity against Podosphaera fuligineas assessed as cucumber […] mildew disease control at 2 ppm foliar application 24 hr after inoculation by curative manner
Format: functional
Give Activity for every item shown.
Could you give me the number in %? Just the number is fine.

q: Name the recorded Activity of the compound listed here: CNC(=O)/C(=N/OC)c1ccccc1COc1ncc(C(F)(F)F)cc1Cl
a: 90

q: Name the recorded Activity of the compound listed here: CNC(=O)/C(=N/OC)c1ccccc1COc1nc(Cl)ccc1C(F)(F)F
a: 90

q: Name the recorded Activity of the compound listed here: CNC(=O)/C(=N/OC)c1ccccc1COc1nc(Cl)c(C(F)(F)F)cc1Cl
a: 90

q: Name the recorded Activity of the compound listed here: CNC(=O)/C(=N/OC)c1ccccc1COc1ncc(Cl)cc1Cl
a: 90
